Biological target: Poly [ADP-ribose] polymerase 1 (Homo sapiens, UniProt P09874)
Sequence (P09874 whole entry): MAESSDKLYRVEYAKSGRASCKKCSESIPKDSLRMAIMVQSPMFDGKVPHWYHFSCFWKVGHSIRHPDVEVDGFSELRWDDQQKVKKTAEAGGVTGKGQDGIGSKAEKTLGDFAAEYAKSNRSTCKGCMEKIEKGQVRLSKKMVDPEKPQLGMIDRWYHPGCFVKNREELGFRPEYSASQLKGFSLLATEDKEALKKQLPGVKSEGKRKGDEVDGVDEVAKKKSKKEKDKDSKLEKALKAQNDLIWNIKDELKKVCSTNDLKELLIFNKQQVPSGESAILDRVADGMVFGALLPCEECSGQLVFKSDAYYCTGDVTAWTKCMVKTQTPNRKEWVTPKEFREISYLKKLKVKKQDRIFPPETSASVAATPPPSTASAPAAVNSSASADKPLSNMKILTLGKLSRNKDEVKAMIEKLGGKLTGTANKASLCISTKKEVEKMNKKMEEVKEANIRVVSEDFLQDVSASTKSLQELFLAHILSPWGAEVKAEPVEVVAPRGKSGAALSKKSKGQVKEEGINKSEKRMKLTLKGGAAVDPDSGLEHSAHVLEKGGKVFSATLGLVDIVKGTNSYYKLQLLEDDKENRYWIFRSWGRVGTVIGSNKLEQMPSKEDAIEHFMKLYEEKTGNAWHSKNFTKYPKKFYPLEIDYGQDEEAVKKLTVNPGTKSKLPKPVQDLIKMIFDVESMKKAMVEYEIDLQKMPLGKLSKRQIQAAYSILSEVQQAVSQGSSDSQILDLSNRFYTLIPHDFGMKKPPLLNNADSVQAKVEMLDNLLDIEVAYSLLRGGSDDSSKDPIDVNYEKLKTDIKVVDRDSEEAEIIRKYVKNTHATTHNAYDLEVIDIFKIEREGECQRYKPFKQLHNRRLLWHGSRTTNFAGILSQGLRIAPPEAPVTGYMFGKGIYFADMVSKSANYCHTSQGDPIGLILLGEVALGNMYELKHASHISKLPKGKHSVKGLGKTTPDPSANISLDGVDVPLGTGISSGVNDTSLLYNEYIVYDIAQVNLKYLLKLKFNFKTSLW
Record form. Attribute: pKi. Fill in for each entry.
Answers are plain numbers, as −log10 of the molar value.

Worked cases, answers included:
>>> measured_value("Cc1noc(-c2ccc(-c3nc4c(C(N)=O)cccc4[nH]3)cc2)n1")
8.40
>>> measured_value("NC(=O)c1cccc2[nH]c(-c3ccc(-c4nc(=O)o[nH]4)cc3)nc12")
7.80
>>> measured_value("NC(=O)c1cccc2[nH]c(-c3ccc(-c4ccno4)cc3)nc12")
8.00
>>> measured_value("NC(=O)c1cccc2[nH]c(-c3ccc(-c4cscn4)cc3)nc12")
8.77
>>> measured_value("NC(=O)c1cccc2[nH]c(-c3ccc(-c4nc(=S)o[nH]4)cc3)nc12")
8.42
>>> measured_value("NC(=O)c1cccc2[nH]c(-c3ccc(-c4cnco4)cc3)nc12")
9.12
>>> measured_value("NC(=O)c1cccc2[nH]c(-c3ccc(-c4n[nH]c(=O)o4)cc3)nc12")
8.80
>>> measured_value("NC(=O)c1cccc2[nH]c(-c3ccc(-c4nsc(=O)[nH]4)cc3)nc12")
8.28
>>> measured_value("NC(=O)c1cccc2[nH]c(-c3ccc(-c4csc(N)n4)cc3)nc12")
8.66
>>> measured_value("Cn1ccc(-c2ccc(-c3nc4c(C(N)=O)cccc4[nH]3)cc2)n1")
8.35

Answer for every listed entry: what is its pKi? The entries follow.
1. NC(=O)c1cccc2[nH]c(-c3ccc(-c4nnco4)cc3)nc12
2. NC(=O)c1cccc2[nH]c(-c3ccc(-c4cn5ccc(C(F)(F)F)cc5n4)cc3)nc12
3. Cc1nc(-c2ccc(-c3nc4c(C(N)=O)cccc4[nH]3)cc2)co1
4. NC(=O)c1cccc2[nH]c(-c3ccc(-c4ncc[nH]4)cc3)nc12
5. NC(=O)c1cccc2[nH]c(-c3ccc(-c4cn5ccccc5n4)cc3)nc12
6. NC(=O)c1cccc2[nH]c(-c3ccc(-c4cnc[nH]4)cc3)nc12

A)
1: 9.00; 2: 8.17; 3: 8.62; 4: 8.66; 5: 8.54; 6: 8.92

Q) Annotate the compound `NC(=O)c1cccc2[nH]c(-c3ccc(-c4nnn[nH]4)cc3)nc12` with its measured pKi.
A) 7.70

---

Molecular target: Poly [ADP-ribose] polymerase 1 (Homo sapiens)
Test: Inhibition of PARP1 in human C41 cells after 30 mins by cell-based assay
pEC50: −log10 of the molar value.
pEC50 below 8 gives no; pEC50 at or above it gives yes.

Example results:
>>> assigned_category("NC(=O)c1cccc2[nH]c(-c3ccc(-c4nc(=S)o[nH]4)cc3)nc12")
"no"
>>> assigned_category("NC(=O)c1cccc2[nH]c(-c3ccc(-c4nsc(=O)[nH]4)cc3)nc12")
"no"
>>> assigned_category("NC(=O)c1cccc2[nH]c(-c3ccc(-c4ccno4)cc3)nc12")
"no"
>>> assigned_category("NC(=O)c1cccc2[nH]c(-c3ccc(-c4ccccc4)cc3)nc12")
"no"

Q) State whether the measured pEC50 reaches 8, counting equality as reaching it, for `Cc1nc(-c2ccc(-c3nc4c(C(N)=O)cccc4[nH]3)cc2)co1`
A) no

Q) Is it the case that `NC(=O)c1cccc2[nH]c(-c3ccc(-c4ncc[nH]4)cc3)nc12` has pEC50 reaching or exceeding 8?
A) yes

Q) Could you tell me if the measured pEC50 of `NC(=O)c1cccc2[nH]c(-c3ccc(-c4n[nH]c(=O)o4)cc3)nc12` reaches 8 or more?
A) no

Q) Confirm if pEC50 reported for the molecule `Cn1ccc(-c2ccc(-c3nc4c(C(N)=O)cccc4[nH]3)cc2)n1` is 8 or above.
A) no

Q) Dear colleague, could you confirm whether `NC(=O)c1cccc2[nH]c(-c3ccc(-c4cnco4)cc3)nc12` has pEC50 at or above 8?
A) yes

Q) Please check the record `NC(=O)c1cccc2[nH]c(-c3ccc(-c4cn5ccc(C(F)(F)F)cc5n4)cc3)nc12` and state if its pEC50 is at or above 8.
A) no

Q) Would you say `NC(=O)c1cccc2[nH]c(-c3ccc(-c4cnc[nH]4)cc3)nc12` shows pEC50 at minimum 8?
A) yes

Q) Is pEC50 for `NC(=O)c1cccc2[nH]c(-c3ccc(-c4cn5ccccc5n4)cc3)nc12` at or above 8?
A) no

Q) Hi, just wondering whether `NC(=O)c1cccc2[nH]c(-c3ccc(-c4cscn4)cc3)nc12` shows pEC50 of 8 or higher.
A) yes

Q) Record `NC(=O)c1cccc2[nH]c(-c3ccc(-c4csc(N)n4)cc3)nc12` ; criterion: pEC50 no lower than 8. Met?
A) no

Q) Decide: pEC50 of `NC(=O)c1cccc2[nH]c(-c3ccc(-c4nnco4)cc3)nc12` >= 8?
A) yes

Data provenance is ChEMBL document CHEMBL1154691.
